The measurements presented in this section are drawn from the supplement of paper PMC10307832.

Here, each record is paired with measured relative viability data.
System: NCI-H3122
protocolNotes: relative viability (nuclei count vs DMSO), 5 days (fraction); higher = more cells survive
testContext: first compound 2.53 µM

Previously resolved entries follow.
O=c1cc(-c2cccc3c2Sc2ccccc2S3)oc(N2CCOCC2)c1 + N=C(N)NC(=N)NCCc1ccccc1 [Phenformin] (partner 250 µM) :: 0.36
O=c1cc(-c2cccc3c2Sc2ccccc2S3)oc(N2CCOCC2)c1 + CCNC(=O)c1noc(-c2cc(C(C)C)c(O)cc2O)c1-c1ccc(CN2CCOCC2)cc1 [Luminespib] (partner 0.01 µM) :: 0.0685

Return reported relative viability; argument: O=c1cc(-c2cccc3c2Sc2ccccc2S3)oc(N2CCOCC2)c1 + Nc1ncn([C@H]2C[C@H](O)[C@@H](CO)O2)c(=O)n1 [Decitabine] (partner 2 µM)
0.38

----------
Here, each record is paired with measured relative viability data.
Tested on: LU99A
protocolNotes: relative viability (nuclei count vs DMSO), 5 days (fraction); higher = more cells survive
testContext: first compound 6.325 µM
Give only the figure.

Previously resolved entries follow.
COCC1(CO)C(=O)C2CCN1CC2 (stereo unspecified) [PRIMA-1MET] + CCNC(=O)c1noc(-c2cc(C(C)C)c(O)cc2O)c1-c1ccc(CN2CCOCC2)cc1 [Luminespib] (partner 0.01 µM) :: 0.221
COCC1(CO)C(=O)C2CCN1CC2 (stereo unspecified) [PRIMA-1MET] + NC(=O)Nc1cc(-c2cccc(F)c2)sc1C(=O)N[C@H]1CCCNC1 [AZD7762] (partner 0.2 µM) :: 0.361
COCC1(CO)C(=O)C2CCN1CC2 (stereo unspecified) [PRIMA-1MET] + Cc1nc(NC(=O)N2CCC[C@H]2C(N)=O)sc1-c1ccnc(C(C)(C)C(F)(F)F)c1 [Alpelisib] (partner 2 µM) :: 0.293
COCC1(CO)C(=O)C2CCN1CC2 (stereo unspecified) [PRIMA-1MET] + Cc1nc(Nc2ncc(C(=O)Nc3c(C)cccc3Cl)s2)cc(N2CCN(CCO)CC2)n1 [Dasatinib] (partner 0.075 µM) :: 0.671
COCC1(CO)C(=O)C2CCN1CC2 (stereo unspecified) [PRIMA-1MET] + COc1cc2c(Oc3ccc(NC(=O)C4(C(=O)Nc5ccc(F)cc5)CC4)cc3F)ccnc2cc1OCCCN1CCOCC1 [Foretinib] (partner 0.25 µM) :: 0.913

Return reported relative viability; argument: COCC1(CO)C(=O)C2CCN1CC2 (stereo unspecified) [PRIMA-1MET] + N=C(N)NC(=N)NCCc1ccccc1 [Phenformin] (partner 250 µM)
0.831

----------
Here, each record is paired with measured relative viability data.
Tested on: HCC-827
protocolNotes: relative viability (nuclei count vs DMSO), 5 days (fraction); higher = more cells survive
testContext: first compound 0.08 µM
Give only the figure.

Previously resolved entries follow.
COc1nc(C)cnc1NS(=O)(=O)c1cccnc1-c1ccc(-c2nnco2)cc1 [Zibotentan] + N=C(N)NC(=N)NCCc1ccccc1 [Phenformin] (partner 250 µM) :: 0.429
COc1nc(C)cnc1NS(=O)(=O)c1cccnc1-c1ccc(-c2nnco2)cc1 [Zibotentan] + Cc1nc(NC(=O)N2CCC[C@H]2C(N)=O)sc1-c1ccnc(C(C)(C)C(F)(F)F)c1 [Alpelisib] (partner 2 µM) :: 1.01
COc1nc(C)cnc1NS(=O)(=O)c1cccnc1-c1ccc(-c2nnco2)cc1 [Zibotentan] + Nc1ncn([C@H]2C[C@H](O)[C@@H](CO)O2)c(=O)n1 [Decitabine] (partner 2 µM) :: 0.341
O=c1cc(-c2cccc3c2Sc2ccccc2S3)oc(N2CCOCC2)c1 + CC1(C)CCC(c2ccc(Cl)cc2)=C(CN2CCN(c3ccc(C(=O)NS(=O)(=O)c4ccc(N[C@H](CCN5CCOCC5)CSc5ccccc5)c(S(=O)(=O)C(F)(F)F)c4)cc3)CC2)C1 [Navitoclax] (partner 0.5 µM) :: 1.05

Return reported relative viability; argument: COc1nc(C)cnc1NS(=O)(=O)c1cccnc1-c1ccc(-c2nnco2)cc1 [Zibotentan] + O=C(CCCCCCC(=O)Nc1ccccc1)NO [Vorinostat] (partner 1 µM)
0.958
